Molecular target: purple membrane (PM) (Halobacterium salinarum, UniProt P02945)
Construct: The culture of Halobacterium halobium and PM isolation were carried out following a standard procedure; endogenous in cells; host or cells: Halobacterium halobium culture; purple membrane isolated by the standard procedure (Oesterhelt & Stoeckenius)
Sequence (P02945 14-261 limits assumed): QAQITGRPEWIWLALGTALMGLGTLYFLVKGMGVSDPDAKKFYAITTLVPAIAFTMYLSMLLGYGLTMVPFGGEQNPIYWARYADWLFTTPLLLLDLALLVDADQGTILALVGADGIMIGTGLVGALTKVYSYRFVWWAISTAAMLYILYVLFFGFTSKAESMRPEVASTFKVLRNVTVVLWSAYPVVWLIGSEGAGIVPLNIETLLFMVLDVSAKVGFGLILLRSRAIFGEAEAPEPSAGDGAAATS
Assay: SPR binding of peptide to PM (KxV5-type SPR, Langmuir adsorption model)
Details: peptide immobilised on gold chip, PM patches as mobile phase, buffer used in the experiments 10 mM Tris HCl pH 8.0, unit inferred, read-out: equilibrium dissociation constant KD
No end group written: not given here.
measured.parameter: Kd (µM)
Kindly answer with a numeric value in µM, unit omitted.

I am curious: what Kd value has been reported for GARGIMIGTGLVGALTDVYSYDF ? 8.43
